src = PubChem BioAssay (NCATS)

tested.on: Calcium and integrin-binding protein 1 (Homo sapiens) (UniProt Q99828)
Sequence (Q99828 whole entry, looked up): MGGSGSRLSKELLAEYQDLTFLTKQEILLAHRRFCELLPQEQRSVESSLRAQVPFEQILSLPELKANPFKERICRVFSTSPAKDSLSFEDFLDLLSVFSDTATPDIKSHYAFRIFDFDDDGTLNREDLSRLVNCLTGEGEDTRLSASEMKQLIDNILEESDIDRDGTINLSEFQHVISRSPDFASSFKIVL
test.protocol: Primary qHTS for Identification of Calcium Integrin Binding Protein 1 (CIB1) Competitor (AID 1508620);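 further: GST tagged CIB1 binding a fluorescein labelled alphaIIb integrin peptide tracer; top concentration of the series differs between compounds; on the % scale 0 is the no-effect control and ±100 the full control effect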
experimental.context: CIB1-GST / FITC-alphaIIb peptide fluorescence polarization; series mostly up to 114 µM
Inconclusive results are not listed. Calls of active or inactive are those of the source. The call rests on the fitted dose curve; in most records, active means well fitted inhibition curve with a large enough effect; inconclusive means small, poorly fitted or top-dose-only effect; inactive means flat fitted curve, though single readings scatter.
reported.endpoint: activity change, negative = inhibition

Worked set:
- molecule: "O=C(C(c1ccccc1)c1ccccc1)N1CCN(CC(O)COc2cccc3ncccc23)CC1 (stereo unspecified)"
  activity change, negative = inhibition: "inactive"
- molecule: "CCCCc1nc2cc(/C=C/C(=O)NO)ccc2n1CCN(CC)CC"
  activity change, negative = inhibition: "inactive"
- molecule: "CCCCC1CCN(CCCC(=O)c2ccccc2C)CC1"
  activity change, negative = inhibition: "inactive"
- molecule: "C[C@@]1(O)[C@H](O)[C@@H](CO)O[C@H]1n1ccc(N)nc1=O"
  activity change, negative = inhibition: "inactive"
- molecule: "C=C1CC23CC1CCC2C12OC(=O)C(C)(CCC1O)C2C3C(=O)O (stereo unspecified)"
  activity change, negative = inhibition: "inactive"

### Prompt Missing value: activity change, negative = inhibition, Calcium and integrin-binding protein 1 (Homo sapiens) (UniProt Q99828), entry O=C(NCc1cccc(O)c1)Nc1nc(-c2ccncc2)cs1 . Fill in?
### Response inactive

---

Test system: CASKI
test.protocol: Primary qHTS to identify gynecologic anti-cancer compounds using libraries of approved drugs and bioactive compounds (AID 1345084); further: nearly all actives have a fitted effect of over 55% in size
experimental.context: Gynecologic cancer cell panel viability, ATPlite luminescence, 48 h; series mostly up to 57.5 µM
Inconclusive results are not listed. Calls of active or inactive are those of the source. The call rests on the fitted dose curve; in most records, active means well fitted cell-killing curve with a large enough effect; inconclusive means small, poorly fitted or top-dose-only effect, or effect the other way; inactive means flat fitted curve, though single readings scatter.
Could you please pick one outcome from this set? y for active, n for inactive

Some solved cases for reference:
- compound: "CC(C)[C@H]1CC[C@@]2(O)COC(=O)[C@H]2[C@@H]1/C=C(\\CO)C(=O)O"
  discrete.label: "n"
- compound: "CO[C@@H](C)Cn1c(=O)n(C)c2cnc3ccc(-c4cncc(C(C)(C)O)c4)cc3c21"
  discrete.label: "y"
- compound: "CC(=O)OC1C(O)C2C(C)C3=CC(=O)OC3(O)CC2C2(C)CCCC(C)(CO)C12 (centres undefined)"
  discrete.label: "n"
- compound: "C[C@@H]1C(=O)O[C@H]2[C@@H](O)C34[C@H]5C[C@@H](C(C)(C)C)C36[C@@H](OC(=O)[C@@H]6O)O[C@@]4(C(=O)O5)[C@@]12O (some centres undefined)"
  discrete.label: "n"
- compound: "CC(=O)c1cc(C(=O)N[C@@H](C)Cn2ccc(-c3ccc(C#N)c(Cl)c3)n2)[nH]n1"
  discrete.label: "n"
- compound: "O=C1C=CC2OC(c3ccccc3)C(O)C2O1 (centres undefined)"
  discrete.label: "n"

### Prompt How was CC1=C(C(=O)O[C@@H]2O[C@H](COC3OCC(O)C(O)C3O)[C@@H](O)[C@H](O)[C@H]2O)C(C)(C)CCC1 (some centres undefined) classified in this test?
### Response n

### Prompt Subsequent entry: CC1C=CC2CCCCC2C1CCC1CC(O)CC(=O)O1 (centres undefined)
### Response n

### Prompt Subsequent entry: CC1(C)CC[C@]2(C(=O)O[C@@H]3O[C@H](CO)[C@@H](O)[C@H](O)[C@H]3O)CC[C@]3(C)C(=CCC4[C@@]5(C)C[C@@H](O)[C@H](O)[C@](C)(C(=O)O)C5CC[C@]43C)C2C1O (some centres undefined)
### Response n

---

System: KB-3-1
test.protocol: Cytotoxic Profiling of Annotated Libraries Using Quantitative High-Throughput Screening (AID 1296008); further: on the % scale 0 is the no-effect control and ±100 the full control effect; nearly all actives have a fitted effect of over 60% in size
experimental.context: Five cell lines viability, CellTiter-Glo ATP luminescence, 48-72 h; stronger effect = lower value
Inconclusive results are not listed.
reported.endpoint: max response (%)
Numbers only, in %.

- compound: "C=CC1(C)CC(OC(=O)/C(C)=C\\COC(C)=O)C(C(=C)C(=O)O)C(O)C1C(=C)CO (centres undefined)"
  max response [%]: 8.05
- compound: "CCCC(=O)O[C@@H]1[C@@H]2[C@@H](OC(C)=O)[C@]3(C)C(=O)[C@H]4[C@@H](OC(C)=O)C(C)(C)C[C@H]4[C@]3(C)C(=O)[C@@]2(OC(C)=O)C[C@@H]1C"
  max response [%]: 8.81

Hi! Can you tell me max response for each of these compounds?
1. OC[C@H]1O[C@@H](O[C@H]2[C@H](OCc3ccccc3)O[C@H](CO[C@@H]3OC[C@@H](O)[C@H](O)[C@H]3O)[C@@H](O)[C@@H]2O)[C@H](O)[C@@H](O)[C@@H]1O
2. COC(=O)C1=CO[C@@H](O)C2C(CO)=CCC12 (some centres undefined)
3. C=C1CCC2C(C)(COC(C)=O)CCCC2(C)C1CCC(C)CC(=O)O (centres undefined)

### Response
4.93
-1.48
8.96

Hi! Can you tell me max response for each of these compounds?
1. Fc1ccc2nc(CCC#Cc3ccccn3)cn2c1
2. CC1OC(OC2C(OC3C(O[C@H]4CC[C@@]5(C)C(CC[C@]6(C)C5C(=O)C=C5C7CC(C)(C)CC(O)[C@]7(C)CC[C@]56C)C4(C)C)OC(C(=O)O)C(O)C3O)OCC(O)C2O)C(O)C(O)C1O (some centres undefined)
3. COc1cc(O)cc(C)c1C(=O)O[C@H]1[C@@H](OC(C)=O)[C@H](n2ccc(=O)[nH]c2=O)O[C@@H]1CO

### Response
-13.9
-2.68
7.29

---

Test system: HEK293
test.protocol: Cytotoxic Profiling of Annotated Libraries Using Quantitative High-Throughput Screening (AID 1296008); further: on the % scale 0 is the no-effect control and ±100 the full control effect; nearly all actives have a fitted effect of over 60% in size
experimental.context: Five cell lines viability, CellTiter-Glo ATP luminescence, 48-72 h; stronger effect = lower value
Results filed as inconclusive are left out.
reported.endpoint: max response (%)
Answers are plain numbers, in %.

Worked set:
- molecule: "CC1OC(OC2CCC3(C)C(CCC4(C)C3CC=C3C5CC(C)(C)CCC5(C(=O)OC5OC(CO)C(O)C(O)C5O)CCC34C(=O)O)C2(C)C)C(O)C(O)C1O (stereo not given)"
  tested.on: "HEK293"
  reported.endpoint: "max response"
  assay.value: -0.856
- molecule: "CC1=C2C[C@H]3O[C@@]3(C)CCC3O[C@@]3(C)C[C@@]2(O)OC1=O (stereo not given in full)"
  tested.on: "HEK293"
  reported.endpoint: "max response"
  assay.value: -4.05
- molecule: "C[C@@H]1O[C@@H](O[C@H]2[C@@H]3C=CO[C@@H](O[C@@H]4O[C@H](CO)[C@@H](O)[C@H](O)[C@H]4O)[C@@H]3[C@@]3(CO)O[C@@H]23)[C@H](OC(=O)/C=C/c2ccccc2)[C@H](O)[C@H]1O"
  tested.on: "HEK293"
  reported.endpoint: "max response"
  assay.value: -1.51
- molecule: "CC(C)=CCC[C@](C)(O)[C@H]1CC[C@]2(C)[C@@H]1[C@H](O)CC1[C@@]3(C)CC[C@H](O)C(C)(C)C3[C@@H](O[C@@H]3O[C@H](CO)[C@@H](O)[C@H](O)[C@H]3O[C@@H]3OC[C@@H](O)[C@H](O)[C@H]3O)C[C@]12C (stereo not given in full)"
  tested.on: "HEK293"
  reported.endpoint: "max response"
  assay.value: 4.3
- molecule: "Cc1ccccc1CN1C2=NCCN2C(=O)C2=C1CCN(Cc1ccccc1)C2"
  tested.on: "HEK293"
  reported.endpoint: "max response"
  assay.value: -7.79

Hi! Can you tell me max response for each of these molecules?
1. C/C(=C\C=C\C(C)C1CCC2(C)C3CCC4C(C)(C)C(=O)CCC45CC35CCC12C)C(=O)O (stereo not given)
2. O=C(CCCCN1CCOCC1)Nc1ccc(-c2cccnc2)cc1
3. CC[C@@](C)(Nc1ccnc(-c2c[nH]c3ncccc23)n1)C(=O)NCC(F)(F)F
4. C/C=C(/COC(=O)/C(C)=C/C)C(=O)OC(CC)c1ccc(OC)c(OC)c1 (stereo not given)
5. O=C1NC(Cc2ccccc2)C(=O)N2CCCC12 (stereo not given)

### Response
1: -1.63; 2: 0.956; 3: -4.43; 4: 4.08; 5: -1.73

Hi! Can you tell me max response for each of these molecules?
1. CC(C)=C/C=C\[C@H](C)[C@H]1CC[C@]2(C)C[C@@H]3C(C)=CC(=O)C3/C(CO)=C\C[C@@H]12 (stereo not given in full)
2. CC(=O)O[C@@H]1[C@@H](CO)O[C@@](CO)(O[C@H]2O[C@H](COC(=O)/C=C/c3ccccc3)[C@@H](O)[C@H](O)[C@H]2O)[C@H]1O
3. C=C[C@H]1[C@H](O[C@@H]2O[C@H](CO)[C@@H](O)[C@H](O)[C@H]2O)OC=C(C(=O)OC)[C@H]1C/C=C(/C=O)[C@@H]1C(C(=O)OC)=CO[C@@H](O[C@@H]2O[C@H](CO)[C@@H](O)[C@H](O)[C@H]2O)[C@@H]1C=C

### Response
-20.2
0.799
-29.3

Hi! Can you tell me max response for each of these molecules?
1. CCCOC(c1cc2nccc(C(=O)O)c2[nH]1)c1ccccc1Cl (stereo not given)
2. OCCc1ccc(O[C@@H]2O[C@H](CO)[C@@H](O)[C@H](O)[C@H]2O)cc1

### Response
-12.6
0.276
